Hi there, I'd appreciate the recorded Activity for every entry that follows.
target: UniProtKB P15559; test: Substrate activity at recombinant human NQO1 assessed as reduction in NADPH level measured per umol of NQO1 at 10 uM in presence of NADPH by NADPH recycling assay
Sequence (P15559 whole entry): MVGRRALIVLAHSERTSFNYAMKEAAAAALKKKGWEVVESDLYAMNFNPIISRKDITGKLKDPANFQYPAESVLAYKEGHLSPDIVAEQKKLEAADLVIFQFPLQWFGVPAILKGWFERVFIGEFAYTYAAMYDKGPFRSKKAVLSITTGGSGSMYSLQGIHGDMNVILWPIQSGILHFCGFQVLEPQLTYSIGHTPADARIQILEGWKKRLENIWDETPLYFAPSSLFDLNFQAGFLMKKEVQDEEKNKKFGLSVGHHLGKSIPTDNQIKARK
Units required after the number.

Previously resolved entries follow.
molecule: Cc1c(CN(C)CCNC(=O)/C=C/c2cccnc2)oc2c1C(=O)C(=O)c1c-2ccc2c1CCCC2(C)C
test.system: UniProtKB P15559
Activity: 553 µmol/min
//
molecule: Cc1coc2c1C(=O)C(=O)c1c-2ccc2c1CCCC2(C)C [TANSHINONE IIA]
test.system: UniProtKB P15559
Activity: 530 µmol/min
//
molecule: Cc1c(CN(CCNC(=O)/C=C/c2cccnc2)c2ccccc2)oc2c1C(=O)C(=O)c1c-2ccc2c1CCCC2(C)C
test.system: UniProtKB P15559
Activity: 332 µmol/min
//
molecule: Cc1c(CNc2ccc(CCNC(=O)/C=C/c3cccnc3)cc2)oc2c1C(=O)C(=O)c1c-2ccc2c1CCCC2(C)C
test.system: UniProtKB P15559
Activity: 949 µmol/min
//
molecule: Cc1c(CN2CCC(CNC(=O)/C=C/c3cccnc3)CC2)oc2c1C(=O)C(=O)c1c-2ccc2c1CCCC2(C)C
test.system: UniProtKB P15559
Activity: 764 µmol/min
//
molecule: CCCN(CCNC(=O)/C=C/c1cccnc1)Cc1oc2c(c1C)C(=O)C(=O)c1c-2ccc2c1CCCC2(C)C
test.system: UniProtKB P15559
Activity: 424 µmol/min
//
molecule: Cc1c(CNCCCNC(=O)/C=C/c2cccnc2)oc2c1C(=O)C(=O)c1c-2ccc2c1CCCC2(C)C
test.system: UniProtKB P15559
Activity: 615 µmol/min

Shifting focus to the molecule that follows.
Data point: Cc1c(CN2CCN(CCNC(=O)/C=C/c3cccnc3)CC2)oc2c1C(=O)C(=O)c1c-2ccc2c1CCCC2(C)C ; Activity = 770 µmol/min

====

target: UniProt:P15559; test: Substrate activity at recombinant human NQO1 assessed as reduction in NADPH level measured per umol of NQO1 at 10 uM in presence of NADPH by NADPH recycling assay
Hi there, I'd appreciate the recorded Activity for every entry that follows.
Units required after the number.

line.notation: CCN(CCNC(=O)/C=C/c1cccnc1)Cc1oc2c(c1C)C(=O)C(=O)c1c-2ccc2c1CCCC2(C)C
test.system: UniProt:P15559
result: 474 µmol/min
//
line.notation: Cc1c(CN(CCNC(=O)/C=C/c2cccnc2)Cc2ccccc2)oc2c1C(=O)C(=O)c1c-2ccc2c1CCCC2(C)C
test.system: UniProt:P15559
result: 369 µmol/min
//
line.notation: Cc1c(CNCCNC(=O)/C=C/c2cccnc2)oc2c1C(=O)C(=O)c1c-2ccc2c1CCCC2(C)C
test.system: UniProt:P15559
result: 569 µmol/min
//
line.notation: Cc1c(CNCCCCNC(=O)/C=C/c2cccnc2)oc2c1C(=O)C(=O)c1c-2ccc2c1CCCC2(C)C
test.system: UniProt:P15559
result: 610 µmol/min
//
line.notation: Cc1c(CNCc2ccc(CNC(=O)/C=C/c3cccnc3)cc2)oc2c1C(=O)C(=O)c1c-2ccc2c1CCCC2(C)C
test.system: UniProt:P15559
result: 1050 µmol/min
//
line.notation: Cc1c(CN2CCC(c3ccc(NC(=O)/C=C/c4cccnc4)cc3)CC2)oc2c1C(=O)C(=O)c1c-2ccc2c1CCCC2(C)C
test.system: UniProt:P15559
result: 393 µmol/min

Shifting focus to the compound that follows.
Data point: Cc1c(CNCCCCCCNC(=O)/C=C/c2cccnc2)oc2c1C(=O)C(=O)c1c-2ccc2c1CCCC2(C)C ; Activity = 754 µmol/min
